- Species: Rattus norvegicus
- Protocol Text: DrugMatrix - Regimen: Daily Repeat
- Assay type: toxicity, organism-based, Sprague-Dawley
- Design: regimen Daily Repeat, gender Male, age 6-8 weeks
- Conditions: in vivo, po, 50 mg/kg, 120 h, tissue Plasma, route oral GAVAGE, dose level Low, time 5 day, vehicle .5 % CMC
Measured Metric: GLUCOSE (mg/dL)
One number for each entry, in mg/dL.

[[record]]
compound = "CN(C)[C@@H]1C(O)=C(C(N)=O)C(=O)[C@@]2(O)C(O)=C3C(=O)c4c(O)ccc(Cl)c4[C@@](C)(O)[C@H]3C[C@@H]12 [CHLORTETRACYCLINE]"
result_value = 159.67

[[record]]
compound = "NC1CCN(c2nc3c(cc2F)c(=O)c(C(=O)O)cn3-c2ccc(F)cc2F)C1 (centres undefined) [TOSUFLOXACIN]"
result_value = 169.67

[[record]]
compound = "Cc1cccc(C)c1OCC(C)N (centres undefined) [MEXILETINE]"
result_value = 163.67


// query GLUCOSE value for entry CCN1CCC[C@H]1CNC(=O)c1cc(S(N)(=O)=O)ccc1OC [LEVOSULPIRIDE]
188.67
